- measured_on: hGALK1 (Homo sapiens, UniProt P51570, E253A/K252A)
- Construct: A hGALK1 construct, encoding full-length protein harboring the surface entropy[41] mutations K252A:E253A; His6 (N); made in house; host or cells: E. coli BL21(DE3)
- method: Kinase-Glo luminescent hGALK1 activity assay
- Assay type: biochemical
- measurement_context: 10 nM hGALK1, 100 μM galactose, 35 μM ATP; read-out: IC50
value_kind: IC50

{"compound": "O=C1CCCC2=C1C1(CCCCC1)N=C(Nc1nc3ccccc3o1)N2 [T2, reference compound]", "endpoint_result": "17 µM"}

----------
Collected Vmaxapp, substrate ATP, with ligand (+) values appear next to each entry.
- measured_on: T1, hGALK1 (Homo sapiens, UniProt P51570, E253A/K252A)
- T1 construct: A hGALK1 construct, encoding full-length protein harboring the surface entropy[41] mutations K252A:E253A; His6 (N); made in house; host or cells: E. coli BL21(DE3)
- method: Amplex Red fluorescence-based hGALK1 activity assay (coupled with galactose oxidase)
- Type: biochemical
- Design: unit not given here
- measurement_context: 50 µM galactose; maximum tested concentration: 1 mM T1, 15 mM fragment 3, 2 mM 11–13
value_kind: Vmaxapp, substrate ATP, with ligand (+)

{"compound": "O=C(Cc1ccc(Cl)cc1)Nc1ncccn1 [fragment 3]", "measured_on": "T1, hGALK1 (Homo sapiens, UniProt P51570, E253A/K252A)", "endpoint_result": 4.2}
{"compound": "O=C(CNc1cnc2cc(Cl)c(Cl)cc2n1)NC1CC1 [compound 11]", "measured_on": "T1, hGALK1 (Homo sapiens, UniProt P51570, E253A/K252A)", "endpoint_result": 11.1}
{"compound": "COCCNC(=O)CNc1cnc2cc(Cl)c(Cl)cc2n1 [compound 12]", "measured_on": "T1, hGALK1 (Homo sapiens, UniProt P51570, E253A/K252A)", "endpoint_result": 11.8}
{"compound": "COc1ccc(Cl)cc1C(=O)NC1CCN(c2ncccn2)CC1 [compound 13]", "measured_on": "T1, hGALK1 (Homo sapiens, UniProt P51570, E253A/K252A)", "endpoint_result": 14.7}
{"compound": "O=C1CCCC2=C1C1(CCCC1)N=C(Nc1nc3ccccc3o1)N2 [T1, reference compound]", "measured_on": "T1, hGALK1 (Homo sapiens, UniProt P51570, E253A/K252A)", "endpoint_result": 27.9}
